biological target: von Hippel-Lindau disease tumor suppressor/Hepatocyte growth factor receptor (Homo sapiens, UniProt P08581+P40337); experiment: PROTAC activity at VHL/c-MET in human MKN-45 cells assessed as induction of c-MET degradation by measuring residual activity at 100 nM incubated for 24 hrs by Western blot analysis (reference value: 100 %); type: cell-based
Sequence (P40337 whole entry partner): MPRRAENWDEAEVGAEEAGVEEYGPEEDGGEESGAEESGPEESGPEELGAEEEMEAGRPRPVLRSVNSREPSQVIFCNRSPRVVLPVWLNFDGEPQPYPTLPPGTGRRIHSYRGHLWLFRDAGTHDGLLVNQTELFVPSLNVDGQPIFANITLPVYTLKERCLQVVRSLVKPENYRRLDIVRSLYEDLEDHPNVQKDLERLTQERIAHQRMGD
Sequence (P08581 25-1390 limits assumed): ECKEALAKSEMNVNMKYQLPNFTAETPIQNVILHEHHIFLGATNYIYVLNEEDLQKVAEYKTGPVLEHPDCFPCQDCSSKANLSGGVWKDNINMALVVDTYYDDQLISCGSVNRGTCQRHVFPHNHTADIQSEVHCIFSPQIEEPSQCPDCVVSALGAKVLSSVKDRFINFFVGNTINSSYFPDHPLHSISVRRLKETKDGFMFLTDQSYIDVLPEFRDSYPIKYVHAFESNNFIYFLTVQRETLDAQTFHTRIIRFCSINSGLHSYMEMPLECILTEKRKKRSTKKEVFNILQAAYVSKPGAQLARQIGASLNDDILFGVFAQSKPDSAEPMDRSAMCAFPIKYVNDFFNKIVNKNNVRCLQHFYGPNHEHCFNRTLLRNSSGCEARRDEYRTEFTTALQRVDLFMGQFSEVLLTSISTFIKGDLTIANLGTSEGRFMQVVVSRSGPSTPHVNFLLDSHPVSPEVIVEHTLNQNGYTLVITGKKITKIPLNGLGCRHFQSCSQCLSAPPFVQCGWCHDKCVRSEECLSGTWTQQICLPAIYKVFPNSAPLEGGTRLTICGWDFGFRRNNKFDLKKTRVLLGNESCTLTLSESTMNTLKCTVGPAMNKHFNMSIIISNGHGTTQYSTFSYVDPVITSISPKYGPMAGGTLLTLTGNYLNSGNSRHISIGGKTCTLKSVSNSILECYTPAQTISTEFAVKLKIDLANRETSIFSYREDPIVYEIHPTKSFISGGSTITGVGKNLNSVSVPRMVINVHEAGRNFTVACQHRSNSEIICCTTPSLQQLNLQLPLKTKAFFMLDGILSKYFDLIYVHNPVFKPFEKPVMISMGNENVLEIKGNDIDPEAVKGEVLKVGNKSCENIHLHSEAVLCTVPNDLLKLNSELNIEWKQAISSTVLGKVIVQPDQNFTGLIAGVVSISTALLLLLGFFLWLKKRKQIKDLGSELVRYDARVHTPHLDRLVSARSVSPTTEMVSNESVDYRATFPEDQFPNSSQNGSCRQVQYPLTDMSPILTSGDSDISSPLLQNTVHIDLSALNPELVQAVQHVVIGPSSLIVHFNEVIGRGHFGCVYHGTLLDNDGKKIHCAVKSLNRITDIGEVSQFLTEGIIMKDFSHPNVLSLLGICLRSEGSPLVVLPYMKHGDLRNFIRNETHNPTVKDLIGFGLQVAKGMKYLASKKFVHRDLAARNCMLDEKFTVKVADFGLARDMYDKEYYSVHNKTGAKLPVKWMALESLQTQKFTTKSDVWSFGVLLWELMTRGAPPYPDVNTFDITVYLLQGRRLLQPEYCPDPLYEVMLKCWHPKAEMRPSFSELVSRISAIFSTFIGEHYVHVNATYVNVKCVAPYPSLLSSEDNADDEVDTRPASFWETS
metric: Activity (%)
Answer format: numeric, % implied, no suffix.

Use these answered entries as a reference point.
line notation	Activity, %
Cc1ncsc1-c1ccc([C@H](C)NC(=O)[C@@H]2C[C@@H](O)CN2C(=O)[C@@H](NC(=O)CN2CCN(CCNC(=O)c3ccc(-c4cnc5ncc(Cc6ccc7ncccc7c6)n5n4)cc3F)CC2)C(C)(C)C)cc1	61
Cc1ncsc1-c1ccc([C@H](C)NC(=O)[C@@H]2C[C@@H](O)CN2C(=O)[C@@H](NC(=O)COCCOCCOCCOCCNC(=O)c2ccc(-c3cnc4ncc(Cc5ccc6ncccc6c5)n4n3)cc2F)C(C)(C)C)cc1	75
Cc1ncsc1-c1ccc([C@H](C)NC(=O)[C@@H]2C[C@@H](O)CN2C(=O)[C@@H](NC(=O)CN2CCN(CCCC(=O)N3CCC(COc4cnc(-c5cccc(Cn6nc(-c7cccc(C#N)c7)ccc6=O)c5)nc4)CC3)CC2)C(C)(C)C)cc1	61
Cc1ncsc1-c1ccc([C@H](C)NC(=O)[C@@H]2C[C@@H](O)CN2C(=O)[C@@H](NC(=O)CCOCCOCCC(=O)N2CCC(COc3cnc(-c4cccc(Cn5nc(-c6cccc(C#N)c6)ccc5=O)c4)nc3)CC2)C(C)(C)C)cc1	66
Cc1ncsc1-c1ccc([C@H](C)NC(=O)[C@@H]2C[C@@H](O)CN2C(=O)[C@@H](NC(=O)CN2CCN(CCCCCC(=O)N3CCC(COc4cnc(-c5cccc(Cn6nc(-c7cccc(C#N)c7)ccc6=O)c5)nc4)CC3)CC2)C(C)(C)C)cc1	71

# context switch: different compound, same Activity
# input compound: "Cc1ncsc1-c1ccc([C@H](C)NC(=O)[C@@H]2C[C@@H](O)CN2C(=O)[C@@H](NC(=O)CCCCCCCCC(=O)N2CCC(n3cc(-c4cnc(N)c(O[C@H](C)c5c(Cl)ccc(F)c5Cl)c4)cn3)CC2)C(C)(C)C)cc1" ; wanted: its Activity
64

Sourced from ChEMBL document CHEMBL6120971
